- TARGET_SYSTEM: Thyrotropin-releasing hormone receptor (Homo sapiens)
- ASSAY_PROTOCOL: qHTS for Small Molecule Agonists and Allosteric Enhancers of Human TRH Receptor: Confirmation Screen for Enhancers;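 further: compound effect scored on response to added TRH at EC20 of 10 nM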
- CONDITIONS_USED: TRH receptor cell assay, enhancer confirmation qHTS; series mostly up to 46.1 µM
The list shows a part of the results. Records with an inconclusive call do not appear. Calls of active or inactive are those of the source. The call rests on the fitted dose curve; in most records, active means well fitted curve in the direction sought with a large enough effect; inconclusive means small, poorly fitted or top-dose-only effect, or effect the other way, or another doubt; inactive means no such curve, though single readings can be large or run the other way.
OBSERVATION_TYPE: outcome

SMI	ENDPOINT_VALUE
Cc1cc(C)c2nc3nc(C)cc(C)c3c(N)c2c1	inactive
c1cnc(N2CCN(c3ccc4ccccc4n3)CC2)nc1	inactive
CSc1nnnn1-c1c(C)cc(C)cc1C	inactive

Entry source: PubChem BioAssay AID493076
